# condition_details: in n-propanol, 299.15 K
measurement_kind: solubility (mole fraction)
When you answer, write just the number.

Problem: Answer with the recorded solubility (mole fraction) for the molecule listed here: `CCn1c2ccccc2c2ccccc21`
Solution: 0.0202

====

# condition_details: in methanol, 287.15 K
measurement_kind: solubility (mole fraction)
When you answer, write just the number.

Problem: Answer with the recorded solubility (mole fraction) for the compound listed here: `CCn1c2ccccc2c2ccccc21`
Solution: 0.004

====

# condition_details: in n-pentanol, 307.15 K
measurement_kind: solubility (mole fraction)
When you answer, write just the number.

Problem: Answer with the recorded solubility (mole fraction) for the compound listed here: `CCn1c2ccccc2c2ccccc21`
Solution: 0.042
